# Test method notes: Cytotoxicity against African green monkey Vero cells assessed as reduction in cell viability after 72 hrs by CCK-8 assay
# Format: toxicity, cell-based
# Measurement conditions: chlorocebus sabaeus, Vero cells
Each entry below carries its recorded CC50 at 72 h.
Measurement name: CC50 at 72 h

> print(dat)
                                   compound  measurement.name    result
1  CO[C@@H]1CCC(C)(C)Oc2c(O)c(C(C)C)cc3ccc(C)c1c23      CC50 at 72 h  > 100 µM
2  COC(C)(C)C1=Cc2ccc(C)c3c2[C@@](O)(C1=O)C(C)(C)CCC3      CC50 at 72 h  > 100 µM
